test: Cytotoxicity against human K562/G cells assessed as cell viability after 72 hrs by MTT assay; assay type: functional, cell-based; conditions: K562, 72 h
pIC50: −log10 of the molar value.
Is pIC50 at least 6? Then 1 (yes). If not, 0 (no).

Solved entries (count: 9):
compound=C=C1/C=C/C(=O)N(C)CC(=O)N[C@@H]([C@H](O)C(=O)OC)C(=O)O[C@@H]([C@@H](C)CCCCCCCCCCCC(C)C)[C@H](C)C(=O)N1 answer_label="1 (yes)"
compound=C=C1/C=C/C(=O)N(C)CC(=O)N[C@H]([C@@H](O)C(=O)OC)C(=O)O[C@@H]([C@H](C)CCCCCCCCCCCC(C)C)[C@H](C)C(=O)N1 answer_label="0 (no)"
compound="Cc1ccc(NC(=O)c2ccc(CN3CCN(C)CC3)cc2)cc1Nc1nccc(-c2cccnc2)n1 [IMATINIB]" answer_label="0 (no)"
compound=C=C1/C=C/C(=O)N(C)CC(=O)N[C@H]([C@@H](O)C(=O)OC)C(=O)O[C@H]([C@@H](C)CCCCCCCCCCCC(C)C)[C@@H](C)C(=O)N1 answer_label="1 (yes)"
compound=C=C1/C=C/C(=O)N(C)CC(=O)N[C@@H]([C@H](O)C(N)=O)C(=O)O[C@@H]([C@H](C)CCCCCCCCCCCC(C)C)[C@H](C)C(=O)N1 answer_label="1 (yes)"
compound=COC(=O)[C@@H](O)[C@@H]1NC(=O)CN(C)C(=O)/C=C/[C@H](CO)NC(=O)[C@H](C)[C@@H]([C@@H](C)CCCCCCCCCCCC(C)C)OC1=O answer_label="0 (no)"
compound=COC(=O)[C@H](O)[C@H]1NC(=O)CN(C)C(=O)/C=C/[C@@H](CO)NC(=O)[C@H](C)[C@@H]([C@@H](C)CCCCCCCCCCCC(C)C)OC1=O answer_label="0 (no)"
compound=C=C1/C=C/C(=O)N(C)CC(=O)N[C@@H]([C@H](O)C(=O)OC)C(=O)O[C@H]([C@@H](C)CCCCCCCCCCCC(C)C)[C@@H](C)C(=O)N1 answer_label="0 (no)"
compound=COC(=O)[C@@H](O)[C@@H]1NC(=O)CN(C)C(=O)/C=C/[C@H](CO)NC(=O)[C@@H](C)[C@H]([C@@H](C)CCCCCCCCCCCC(C)C)OC1=O answer_label="0 (no)"

Proceed to the following item.
Exercise: Would you say COC(=O)[C@@H](O)[C@@H]1NC(=O)CN(C)C(=O)/C=C/[C@H](CO)NC(=O)[C@@H](C)[C@H]([C@H](C)CCCCCCCCCCCC(C)C)OC1=O shows pIC50 at minimum 6?
Solution: 0 (no)
